- Measured On: UniProt P00734
- Assay Method Text: Chromogenic kinetic enzyme assay of thrombin
- Format: biochemical
pKi: −log10 of the molar value. Starred links: 1 amine or outer side, 2 acyl side, 3 side chain; linkers in the order of their positions; H or OH if unused. Non-standard residues stand in square brackets, D forms with d. Residues, ends and D or L forms follow the SMILES beside them. X1 = N=C(N)NCCC[C@H](N[*:1])C(=O)c1nc2ccc(C(=O)[*:2])cc2s1
Readout: pKi

Solved entries (count: 2):
Compound | Measured On | Readout | Readout Value
CC(=O)N[C@@H](CCCCN)C(=O)N[C@@H](CCC(N)=O)C(=O)N[C@@H](CC(C)C)C(=O)N[C@@H](CCCNC(=N)N)C(=O)c1nc2ccccc2s1 [Compound 7006, Ac-KQLR(SEQ ID NO: 1)-Kbt] | UniProt P00734 | pKi | < 4.70
CC(=O)N[C@@H](CO)C(=O)N[C@@H](CCCCN)C(=O)N[C@@H](CC(C)C)C(=O)N[C@@H](CCCNC(=N)N)C(=O)c1nc2ccccc2s1 [Compound 7053, Ac-SKLR(SEQ ID NO: 10)-Kbt] | UniProt P00734 | pKi | < 4.70

From here, focus on the item given below.
Prompt: Consider the compound CC(=O)N[C@@H](CO)C(=O)N[C@@H](CCCCN)C(=O)N[C@@H](CC(C)C)C(=O)N[C@@H](CCCNC(=N)N)C(=O)c1nc2ccc(C(=O)N[C@H](C(N)=O)C(C)C)cc2s1 [Compound 7116, Ac-SKLR(SEQ ID NO: 10)-Kbt-Val— NH2] (Ac-SKL[X1]V-NH2) . State its measured pKi.
Response: 5.35
